As shown below, each of these molecules has a reported EC50 value.
- target system: human alpha 7-wt nAChR (Homo sapiens)
- Construct: expressed in transfected cells
- assay protocol: Ca2+ flux imaging (FDSS) (protocol B)
- Type: cell-based
- measurement conditions: Ca2+ assay as described in D.1; read-out: pEC50 (converted)
// return numeric value only (unit: µM, not printed)

Reference set, count: 3
{"molecule": "Cc1cc(-c2ccc(N3C[C@@H](C)O[C@@H](C)C3)c(F)c2CNC(=O)c2conc2C)cc(C)n1 [Compound 39]", "observed result": 0.832}
{"molecule": "Cc1cc(-c2c(F)cc(N3CCO[C@H](C(F)(F)F)C3)cc2CNC(=O)CC2CCC2)cc(C)n1 [Compound 105]", "observed result": 0.017}
{"molecule": "Cc1cc(-c2ccc(N3CCCC(C(F)(F)F)C3)cc2CNC(=O)c2cc(C)on2)cc(C)n1 (stereo not shown) [Compound 34]", "observed result": 0.537}

State, in one line, measured EC50 of Cc1cc(-c2c(F)cc(N3CCO[C@H](C(F)(F)F)C3)cc2CNC(=O)CC2CC2)cc(C)n1 [Compound 108]
0.0186

###

- target system: human alpha 7-wt nAChR (Homo sapiens, UniProt P36544)
- Construct: expressed in transfected cells
- Sequence (P36544 23-502): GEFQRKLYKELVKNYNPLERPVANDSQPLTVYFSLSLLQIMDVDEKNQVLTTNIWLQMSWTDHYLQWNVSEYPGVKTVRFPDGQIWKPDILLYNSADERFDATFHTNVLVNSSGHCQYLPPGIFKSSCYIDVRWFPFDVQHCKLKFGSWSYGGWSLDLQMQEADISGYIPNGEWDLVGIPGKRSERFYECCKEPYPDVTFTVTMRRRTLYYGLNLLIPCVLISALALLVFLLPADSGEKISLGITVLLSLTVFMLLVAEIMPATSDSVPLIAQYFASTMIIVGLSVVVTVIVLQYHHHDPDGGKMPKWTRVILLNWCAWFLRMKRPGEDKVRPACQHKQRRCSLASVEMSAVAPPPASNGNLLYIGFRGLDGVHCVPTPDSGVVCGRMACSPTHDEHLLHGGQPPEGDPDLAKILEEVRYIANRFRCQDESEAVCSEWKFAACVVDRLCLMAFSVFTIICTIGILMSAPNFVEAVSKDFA
- assay protocol: Ca2+ flux imaging (FDSS) (protocol B)
- Type: cell-based
- measurement conditions: Ca2+ assay as described in D.1; read-out: pEC50 (converted)
- Procedure: Example D.1 : Ca^2+ flux imaging (FDSS) (protocol B) […] PAM activity was detected in real time by applying the compounds to be tested to the loaded cells along with an alpha 7 nicotinic receptor agonist during constant monitoring of cellular fluorescence in a FDSS. […] A control response to choline was calculated on each plate from the difference in peak in fluorescence in wells receiving either choline or assay buffer alone. […]
Listing of entries alongside the reported EC50.

Worked cases, EC50 given:
{"compound": "Cc1cc(-c2c(F)cc(N3C[C@@H](C)O[C@@H](C)C3)c(F)c2CNC(=O)c2cc(C)on2)cc(C)n1", "observed result": "631 nM"}
{"compound": "Cc1cc(-c2ccc(N3C[C@H](C(F)(F)F)C[C@H](C(F)(F)F)C3)cc2CNC(=O)C(C)C)cc(C)n1", "observed result": "15.8 nM"}
{"compound": "Cc1cc(-c2c(F)cc(N3CCOC(C)C3)cc2CNC(=O)CC(C)C)cc(C)n1 (centres unmarked)", "observed result": "20.9 nM"}
{"compound": "Cc1cc(-c2ccc(N3C[C@@H](C)O[C@@H](C)C3)cc2CNC(=O)C(C)C)cc(C)n1", "observed result": "37.2 nM"}
{"compound": "Cc1cc(-c2ccc(N3CCO[C@H](C(F)(F)F)C3)c(F)c2CNC(=O)CC(C)C)cc(C)n1", "observed result": "132 nM"}
{"compound": "Cc1cc(-c2c(F)cc(N3CCCC(C(F)(F)F)C3)cc2CNC(=O)CC2CC2)cc(C)n1 (centres unmarked)", "observed result": "27.5 nM"}

Please supply the value of reported EC50 for the item Cc1cc(-c2c(F)cc(N3C[C@@H](C)O[C@@H](C)C3)cc2CNC(=O)C2CC2)ccn1
209 nM

Give the value of EC50 reported for the following: Cc1cc(-c2ccc(N3C[C@@H](C)O[C@@H](C)C3)c(F)c2CNC(=O)CC(C)C)cc(C)n1
120 nM

Using the record for Cc1cc(-c2cc(F)c(N3C[C@@H](C)O[C@@H](C)C3)cc2CNC(=O)C(C)C)cc(C)n1 , state its measured EC50.
295 nM

Give recorded EC50. Cc1cc(-c2ccc(N3CCO[C@@H](C(F)(F)F)C3)c(F)c2CNC(=O)CC2CCC2)cc(C)n1
32.4 nM

Answer with reported EC50 of Cc1cc(-c2ccc(N3C[C@@H](C)O[C@@H](C)C3)cc2CNC(=O)CC2CC2)ccn1
282 nM

Cited source: patent EP2678315B1
